Items are presented alongside their recorded CC50.
# Tested on: MT4
# TEST DETAILS: The concentration required to cause a 50% inhibition of cell proliferation was determined in MT-4 cell culture.
# Format: functional
# ASSAY CONDITIONS: Homo sapiens, read-out: CD50 (the source's name)
Report as a plain number; the unit µM is understood.

Record excerpt, results attached:
compound=Cc1cn([C@H]2C=C[C@@H](CO)O2)c(=O)[nH]c1=O system=MT4 test_readout=CC50 assay_result=314
compound="Nc1nc2c(ncn2C2C=CC(OCP(=O)(O)OP(=O)(O)C(F)(F)P(=O)(O)O)C2)c(=O)[nH]1 (stereo not given)" system=MT4 test_readout=CC50 assay_result=144
compound="Nc1ncnc2c1ncn2C1C=CC(OCP(=O)(O)OP(=O)(O)OP(=O)(O)OP(=O)(O)COC2C=CC(n3cnc4c(N)ncnc43)C2)C1 (stereo not given)" system=MT4 test_readout=CC50 assay_result=131
compound="Nc1nc2c(ncn2C2C=CC(OCP(=O)(O)OP(=O)(O)OP(=O)(O)O)C2)c(=O)[nH]1 (stereo not given)" system=MT4 test_readout=CC50 assay_result=20.5

We now examine a further compound.
Recorded CC50 (compound Nc1nc(O)c2ncn(C3C=CC(OCP(=O)(O)OP(=O)(O)C(F)(F)P(=O)(O)OP(=O)(O)COC4C=CC(n5cnc6c(O)nc(N)nc65)C4)C3)c2n1 (stereo not given) ): 84

---

# System: MT4
# TEST DETAILS: The concentration required to cause a 50% inhibition of cell proliferation was determined in MT-4 cell culture.
# Type: functional
# ASSAY CONDITIONS: Homo sapiens, read-out: CD50 (the source's name)
Items are presented alongside their recorded CC50.

compound="Nc1ncnc2c1ncn2C1C=CC(OCP(=O)(O)OP(=O)(O)C(Br)(Br)P(=O)(O)OP(=O)(O)COC2C=CC(n3cnc4c(N)ncnc43)C2)C1 (stereo not drawn)" system=MT4 test_readout=CC50 assay_result="> 110 µM"
compound="Nc1ncnc2c1ncn2C1C=CC(OCP(=O)(O)OP(=O)(O)OP(=O)(O)O)C1 (stereo not drawn)" system=MT4 test_readout=CC50 assay_result="212 µM"
compound="Nc1ncnc2c1ncn2C1C=CC(OCP(=O)(O)OP(=O)(O)OP(=O)(O)COC2C=CC(n3cnc4c(N)ncnc43)C2)C1 (stereo not drawn)" system=MT4 test_readout=CC50 assay_result="146 µM"

Recorded CC50 (compound Nc1nc2c(ncn2C2C=CC(OCP(=O)(O)OP(=O)(O)OP(=O)(O)COC3C=CC(n4cnc5c(=O)[nH]c(N)nc54)C3)C2)c(=O)[nH]1 (stereo not drawn) ): 56 µM

Recorded CC50 (compound "Cc1cn([C@H]2C[C@H](N=[N+]=[N-])[C@@H](CO)O2)c(=O)[nH]c1=O" ): 140 µM

Recorded CC50 (compound Nc1ncnc2c1ncn2C1C=CC(OCP(=O)(O)OP(=O)(O)C(Br)(Br)P(=O)(O)O)C1 (stereo not drawn) ): > 160 µM

Recorded CC50 (compound Nc1nc2c(ncn2C2C=CC(OCP(=O)(O)OP(=O)(O)OP(=O)(O)OP(=O)(O)COC3C=CC(n4cnc5c(=O)[nH]c(N)nc54)C3)C2)c(=O)[nH]1 (stereo not drawn) ): > 12 µM

Recorded CC50 (compound Nc1nc(O)c2ncn(C3C=CC(OCP(=O)(O)O)C3)c2n1 (stereo not drawn) ): > 320 µM

---

Items are presented alongside their recorded IC50.
# SYSTEM: Human immunodeficiency virus type 1 reverse transcriptase (Human immunodeficiency virus 1, UniProt Q72547)

Record excerpt, results attached:
compound="Nc1nc2c(ncn2C2C=CC(OCP(=O)(O)OP(=O)(O)C(Br)(Br)P(=O)(O)OP(=O)(O)COC3C=CC(n4cnc5c(=O)[nH]c(N)nc54)C3)C2)c(=O)[nH]1 (centres undefined)" assay_result="> 250 µM"
compound="Nc1ncnc2c1ncn2C1C=CC(OCP(=O)(O)OP(=O)(O)C(Br)(Br)P(=O)(O)O)C1 (centres undefined)" assay_result="> 1000 µM"
compound="Nc1ncnc2c1ncn2C1C=CC(OCP(=O)(O)OP(=O)(O)C(Br)(Br)P(=O)(O)OP(=O)(O)COC2C=CC(n3cnc4c(N)ncnc43)C2)C1 (centres undefined)" assay_result="> 200 µM"

We now examine a further compound.
Recorded IC50 (compound Nc1nc2c(ncn2C2C=CC(OCP(=O)(O)OP(=O)(O)C(Br)(Br)P(=O)(O)O)C2)c(=O)[nH]1 (centres undefined) ): > 200 µM
